MEASUREMENT_DESCRIPTION: Solubility of photosensitive agent in polyvinylpyrrolidone/ethylcellosolve solution
Assay type: physicochemical
CONDITION_LABEL: Table 4; 5 g polyvinylpyrrolidone in 106 g ethylcellosolve; sodium salt (*): solubility varied with crystal form
METRIC_NAME: Solubility

CCCCOS(=O)(=O)c1cc(N=[N+]=[N-])ccc1C=Cc1ccc(N=[N+]=[N-])cc1S(=O)(=O)OCCCC [Ester C, reference compound]; Good
CC(C)CNS(=O)(=O)c1cc(N=[N+]=[N-])ccc1C=Cc1ccc(N=[N+]=[N-])cc1S(=O)(=O)NCC(C)C [Amide No. 10]; Good
[N-]=[N+]=Nc1ccc(C=Cc2ccc(N=[N+]=[N-])cc2S(=O)(=O)Nc2ccccc2)c(S(=O)(=O)Nc2ccccc2)c1 [Arylamide B, reference compound]; Poor

====

MEASUREMENT_DESCRIPTION: Solubility of photosensitive agent in polyvinylpyrrolidone/ethylcellosolve solution
Format: physicochemical
CONDITION_LABEL: Table 4; 5 g polyvinylpyrrolidone in 106 g ethylcellosolve; sodium salt (*): solubility varied with crystal form
Where a name gives a salt, the structure may show the parent alone.
METRIC_NAME: Solubility

[N-]=[N+]=Nc1ccc(C=Cc2ccc(N=[N+]=[N-])cc2S(=O)(=O)O)c(S(=O)(=O)O)c1 [Ammonium salt, reference compound]; Poor
CCCCCCCCNS(=O)(=O)c1cc(N=[N+]=[N-])ccc1C=Cc1ccc(N=[N+]=[N-])cc1S(=O)(=O)NCCCCCCCC [Amide No. 9]; Good
CCCCCCCNS(=O)(=O)c1cc(N=[N+]=[N-])ccc1C=Cc1ccc(N=[N+]=[N-])cc1S(=O)(=O)NCCCCCCC [Amide No. 11]; Good
CCCCN(C)S(=O)(=O)c1cc(N=[N+]=[N-])ccc1C=Cc1ccc(N=[N+]=[N-])cc1S(=O)(=O)N(C)CCCC [Amide No. 14]; Good

====

// reported Solubility (water, 25° C.) for each item listed
MEASUREMENT_DESCRIPTION: Solubility in water
Type: physicochemical
CONDITION_LABEL: Table 5; water, 25° C.
Hi! Could you send only the number? It should be in %, unit omitted.

[N-]=[N+]=Nc1ccc(C=Cc2ccc(N=[N+]=[N-])cc2S(=O)(=O)[O-])c(S(=O)(=O)[O-])c1.[Na+].[Na+] [Sodium salt, reference compound]; 3.3

Task item: Fill in: Solubility (water, 25° C.) of [N-]=[N+]=Nc1ccc(C=Cc2ccc(N=[N+]=[N-])cc2S(=O)(=O)O)c(S(=O)(=O)O)c1 [compound 11, reference compound] is ___
Reply: 3.0

====

MEASUREMENT_DESCRIPTION: Solubility of photosensitive agent in polyvinylpyrrolidone/ethylcellosolve solution
Assay type: physicochemical
CONDITION_LABEL: Table 4; 5 g polyvinylpyrrolidone in 106 g ethylcellosolve; sodium salt (*): solubility varied with crystal form
METRIC_NAME: Solubility

CCCNS(=O)(=O)c1cc(N=[N+]=[N-])ccc1C=Cc1ccc(N=[N+]=[N-])cc1S(=O)(=O)NCCC [Lower alkyl amide A, reference compound]; Poor
[N-]=[N+]=Nc1ccc(C=Cc2ccc(N=[N+]=[N-])cc2S(=O)(=O)[O-])c(S(=O)(=O)[O-])c1.[Na+].[Na+] [Sodium salt, reference compound]; Fair
CCCCCN(CCCCC)S(=O)(=O)c1cc(N=[N+]=[N-])ccc1C=Cc1ccc(N=[N+]=[N-])cc1S(=O)(=O)N(CCCCC)CCCCC [Amide No. 15]; Good

The measurements presented in this section are drawn from patent US5041570A.
